B1: Osa-1-4 twister ribozyme (parent)
chain: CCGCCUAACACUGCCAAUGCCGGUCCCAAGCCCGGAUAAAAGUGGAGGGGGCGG

Variants of: B1
Assay: self-cleavage, relative activity (ratio to wild type); higher = more cleavage; co-transcriptional
Rule: self-cleavage of 0.09 or more gives T; anything lower gives F.

- mutation.string: "A40G U43G"
  assigned.class: "T"
- mutation.string: "A29G G13A"
  assigned.class: "F"
- mutation.string: "A36G A46G"
  assigned.class: "T"
- mutation.string: "A39G U43C"
  assigned.class: "T"
- mutation.string: "G50C G53U"
  assigned.class: "T"
- mutation.string: "A29G G53A"
  assigned.class: "F"
- mutation.string: "A10G G22U"
  assigned.class: "T"
- mutation.string: "A46G G42A"
  assigned.class: "F"
- mutation.string: "C33U G30U"
  assigned.class: "F"
